Taken from the supplement of paper PMC13380429.

- Test system: U2OS
- procedureDetails: cell viability relative to DMSO; higher = less toxic
- details: 72 h; 1000 nM
observationType: cell viability
Give your result as the value with the unit written after it.

Reference set, count: 3
compound	cell viability
COC(=O)C[C@H]1CC(c2ccc(O)cc2)=NO1	106%
Cc1ccccc1-n1c(Cn2ncc3c(N)ncnc32)nc2cccc(C)c2c1=O	100%
CCC(CC)C(c1ccc(Nc2nc3ccccc3s2)cc1)n1cncn1 (stereo unspecified)	102%

Form: Entry = `CS(=O)(=O)c1ccc(-c2cnc(N)c(C(=O)Nc3ccccc3)n2)cc1` | System = U2OS | cell viability = ____
93.1%

Hello, I am looking for reported cell viability with U2OS for `Cc1cc(OCC(=O)O)cc(C)c1Cc1ccc(O)c(C(C)C)c1` . Could you help?
99.5%

// lookup cell viability | system=U2OS | key= CN(C)C[C@H](O)Cn1c2ccc(Br)cc2c2cc(Br)ccc21 (racemic)
99.4%

What measured cell viability is associated with `OCCCCO` on U2OS?
111%

API: value(readout=cell viability, system=U2OS) for record `CC(=O)N[C@H](Cc1ccc2ccccc2c1)C(=O)N[C@H](Cc1ccc(Cl)cc1)C(=O)N[C@H](Cc1cccnc1)C(=O)N[C@@H](CO)C(=O)N[C@@H](Cc1ccc(NC(=O)[C@@H]2CC(=O)NC(=O)N2)cc1)C(=O)N[C@H](Cc1ccc(NC(N)=O)cc1)C(=O)N[C@@H](CC(C)C)C(=O)N[C@@H](CCCCNC(C)C)C(=O)N1CCC[C@H]1C(=O)N[C@H](C)C(N)=O`
99.9%

# value lookup — system U2OS, readout cell viability, item `COC(=O)N[C@H](C(=O)N[C@@H](Cc1ccccc1)[C@@H](O)CN(Cc1ccc(-c2ccccn2)cc1)NC(=O)[C@@H](NC(=O)OC)C(C)(C)C)C(C)(C)C`
94%

API: value(readout=cell viability, system=U2OS) for record NNc1nncc2ccccc12 [hydralazine]
101%

Give recorded cell viability with U2OS for the following compound: `Oc1noc2c1CCNC2`
98.3%

Item: Cc1cc(CC(=O)O)n(C)c1C(=O)c1ccc(Cl)cc1 [zomepirac] Test system: U2OS Read-out: cell viability Value: ?
97.7%

Record lookup: for U2OS, what cell viability belongs to CCCCC(=O)O[C@]1(C(=O)CO)CC[C@H]2[C@@H]3CCC4=CC(=O)CC[C@]4(C)[C@H]3[C@@H](O)C[C@@]21C [hydrocortisone-valerate] ?
100%

Lab request: please report cell viability under test system U2OS for `Cc1ccccc1-n1c(CF)nc2ccc(N)cc2c1=O`
98.6%

Return cell viability measured with U2OS given this compound: `O=C(Nc1ccccc1)N1CCN(c2nc(-c3ccccc3)ns2)CC1`
99.6%

U2OS / cell viability / `Cc1nc(C#Cc2ccnc(Cl)c2)c(C)n1-c1ccc(F)cc1` : value?
91.9%
